Molecular target: T1, Antigen CD66c (CEACAM6; Sino Biological, Inc.) (UniProt P40199 35-320)
T1 construct: Bought antigen coated on the ELISA plate; construct not described; also called CD66c antigen; CECACAM6
T1 sequence (looked up): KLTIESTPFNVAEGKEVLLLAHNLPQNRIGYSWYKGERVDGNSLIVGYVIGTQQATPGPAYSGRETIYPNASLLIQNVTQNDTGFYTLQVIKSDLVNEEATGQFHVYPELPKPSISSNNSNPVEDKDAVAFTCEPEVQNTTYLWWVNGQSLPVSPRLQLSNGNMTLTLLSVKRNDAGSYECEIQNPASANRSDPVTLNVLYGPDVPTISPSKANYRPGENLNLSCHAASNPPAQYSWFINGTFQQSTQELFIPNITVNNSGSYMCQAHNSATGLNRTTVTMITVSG
Assay: ELISA, coated CEACAM6 100 ng/well, antibody 41.15 ng/ml
Listed next: entries and their corresponding OD 450 nm.
Entry rule: numbers only, all in OD.

Check out these entries, answers already filled in.
binder	OD 450 nm (OD)
anti-CD66c chimeric antibody 8F5 (antibody, human IgG1, V domains shown, also called chimeric 8F5 antibody; chi 8F5) VH: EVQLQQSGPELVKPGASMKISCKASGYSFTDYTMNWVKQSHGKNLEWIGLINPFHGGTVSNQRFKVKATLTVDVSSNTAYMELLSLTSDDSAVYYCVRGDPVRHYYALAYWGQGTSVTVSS VL: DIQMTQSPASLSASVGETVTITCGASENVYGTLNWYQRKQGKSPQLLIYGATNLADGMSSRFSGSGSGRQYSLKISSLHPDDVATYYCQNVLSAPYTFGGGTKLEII	2.02
recombinant humanized anti-CD66c antibody Protein ID 2938 (Vk5 + VH7) (antibody, human IgG1, V domains shown, also called hu 2938) VH: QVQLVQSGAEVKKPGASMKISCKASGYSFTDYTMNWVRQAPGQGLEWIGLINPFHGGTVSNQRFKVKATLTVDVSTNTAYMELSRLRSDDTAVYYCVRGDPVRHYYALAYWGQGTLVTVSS VL: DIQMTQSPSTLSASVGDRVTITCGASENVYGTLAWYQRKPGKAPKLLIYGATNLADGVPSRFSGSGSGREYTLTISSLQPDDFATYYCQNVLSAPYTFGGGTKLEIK	1.72

// OD 450 nm value for recombinant humanized anti-CD66c antibody Protein ID 3007 (Vk7 + VH6) (antibody, human IgG1, V domains shown, also called hu 3007; #43) VH: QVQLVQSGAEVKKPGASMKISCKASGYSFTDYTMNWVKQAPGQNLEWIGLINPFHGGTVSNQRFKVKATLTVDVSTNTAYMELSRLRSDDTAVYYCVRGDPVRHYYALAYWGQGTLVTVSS VL: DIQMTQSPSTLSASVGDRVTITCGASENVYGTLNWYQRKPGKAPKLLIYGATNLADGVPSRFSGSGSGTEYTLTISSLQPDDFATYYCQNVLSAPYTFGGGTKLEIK : 2.17

Entry recombinant humanized anti-CD66c antibody Protein ID 3019 (Vk7 + VH10) (antibody, human IgG1, V domains shown, also called hu 3019; #51) VH: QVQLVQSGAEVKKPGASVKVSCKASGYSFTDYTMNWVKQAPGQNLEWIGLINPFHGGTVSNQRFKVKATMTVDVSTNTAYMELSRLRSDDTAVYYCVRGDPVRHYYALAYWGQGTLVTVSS VL: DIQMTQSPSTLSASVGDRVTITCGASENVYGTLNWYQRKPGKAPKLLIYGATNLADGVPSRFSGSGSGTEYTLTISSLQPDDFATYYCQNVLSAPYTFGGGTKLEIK ; OD 450 nm = 2.45

Query recombinant humanized anti-CD66c antibody Protein ID 3058 (Vk8 + VH11) (antibody, human IgG1, V domains shown, also called hu 3058; #86) VH: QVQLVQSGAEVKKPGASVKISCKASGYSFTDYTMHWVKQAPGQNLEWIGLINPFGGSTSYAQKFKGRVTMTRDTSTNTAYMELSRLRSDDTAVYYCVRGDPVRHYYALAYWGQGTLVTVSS VL: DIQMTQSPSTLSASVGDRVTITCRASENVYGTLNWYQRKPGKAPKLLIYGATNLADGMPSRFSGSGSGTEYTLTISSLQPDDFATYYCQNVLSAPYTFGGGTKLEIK yields OD 450 nm of 1.38

Measured OD 450 nm, recombinant humanized anti-CD66c antibody Protein ID 3043 (Vk8 + VH6) (antibody, human IgG1, V domains shown, also called hu 3043; #71) VH: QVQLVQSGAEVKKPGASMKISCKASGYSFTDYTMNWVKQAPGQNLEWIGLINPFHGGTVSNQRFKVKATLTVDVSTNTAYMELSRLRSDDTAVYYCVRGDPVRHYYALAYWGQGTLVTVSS VL: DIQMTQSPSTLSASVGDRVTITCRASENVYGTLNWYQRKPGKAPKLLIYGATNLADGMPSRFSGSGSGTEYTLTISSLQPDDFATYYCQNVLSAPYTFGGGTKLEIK : 1.73
